# study.system: Aspartase (Escherichia coli, UniProt Q59388)
# Sequence (Q59388 whole entry): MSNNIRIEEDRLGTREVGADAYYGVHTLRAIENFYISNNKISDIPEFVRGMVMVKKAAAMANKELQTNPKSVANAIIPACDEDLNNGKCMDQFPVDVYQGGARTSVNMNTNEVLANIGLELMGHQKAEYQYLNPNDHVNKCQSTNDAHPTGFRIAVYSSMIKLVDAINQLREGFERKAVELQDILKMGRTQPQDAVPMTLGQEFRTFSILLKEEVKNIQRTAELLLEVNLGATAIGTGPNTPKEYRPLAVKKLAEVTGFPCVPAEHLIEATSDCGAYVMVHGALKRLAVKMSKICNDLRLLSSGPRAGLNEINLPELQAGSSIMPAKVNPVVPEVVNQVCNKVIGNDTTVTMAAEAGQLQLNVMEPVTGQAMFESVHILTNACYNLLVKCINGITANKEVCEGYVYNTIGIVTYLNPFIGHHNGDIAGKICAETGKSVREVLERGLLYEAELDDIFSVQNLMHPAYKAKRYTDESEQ
test.readout: Ki (µM)

O=C(O)[C@H]1N[C@@H]1C(=O)O    55
